protocolText: Pharmacokinetics dose response of non-deuterated D-serine, 30-300 mg/kg PO (Example 4)
Assay type: in vivo, male Sprague-Dawley rats
assayContext: male, Sprague-Dawley, rat, plasma, po, 75 mg/kg, 75 mg/kg PO
readoutKind: Tmax (min)
Give your result in min as a bare value.

Exercise: Would you mind telling me what Tmax value was observed for "N[C@H](CO)C(=O)O" ?
Key: 30

----------
protocolText: Pharmacokinetics dose response of non-deuterated D-serine, 30-300 mg/kg PO (Example 4)
Type: in vivo, male Sprague-Dawley rats
assayContext: male, Sprague-Dawley, rat; plasma, 30 mg/kg PO, (CV %)
readoutKind: AUC(0-inf)
Please give the number followed by its unit.

Exercise: Any idea what AUC(0-inf) was measured for "N[C@H](CO)C(=O)O" ?
Key: 50600 ng·h/mL

----------
protocolText: Brain distribution of Compound 100 after a single 100 mg/kg PO dose (Example 10)
Format: in vivo, male Sprague-Dawley rats
assayContext: male, Sprague-Dawley, rat, brain stem, mean, perfused brain, read-out: brain stem concentration
readoutKind: concentration at 24 h (ng/g)
Quick note: give the figure in ng/g, leave out the unit.

Exercise: Need concentration at 24 h, item "[2H][C@@](N)(CO)C(=O)O"
Key: 721

----------
protocolText: Plasma, hippocampus and cortex concentration of Compound 100 after a 30 mg/kg PO dose (Example 1)
Format: in vivo, male Sprague Dawley rats
assayContext: male, Sprague-Dawley, rat, plasma, mean, 6 hr, read-out: Plasma concentration
readoutKind: concentration at 6 h (ng/mL)
Report only the number, with the unit ng/mL understood.

Exercise: Quick one: concentration at 6 h for "[2H][C@@](N)(CO)C(=O)O" ?
Key: 1780

----------
protocolText: Pharmacokinetics of non-deuterated D-serine after a 300 mg/kg PO dose (Example 2)
Type: in vivo, Male Sprague-Dawley Rats
assayContext: male, Sprague-Dawley, rat, plasma, oral, 300 mg/kg; mean, 1 hour (in Example 2); read-out: Plasma concentration
readoutKind: concentration at 1 h (ng/mL)
Record the value in ng/mL, omitting the unit from your answer.

Exercise: Query: concentration at 1 h; subject: "N[C@H](CO)C(=O)O"
Key: 19200

----------
protocolText: Pharmacokinetics of deuterated and non-deuterated D-serine, PO 10 mg/kg (Example 5)
Assay type: in vivo, male Sprague Dawley rats
assayContext: male, Sprague Dawley, rat, plasma, 0.5% Methylcellulose
Cmax: recorded values
Write the answer as a number in µg/mL, unit excluded.

>>> measvalue("[2H][C@@](N)(CO)C(=O)O [Compound 100]")
11.4

Switching to the query record.
Exercise: Which value of Cmax has been reported for N[C@H](CO)C(=O)O [Non-deuterated D-Serine, D-serine] in the records?
Key: 8.78

----------
protocolText: Pharmacokinetics of non-deuterated D-serine after a 300 mg/kg PO dose (Example 2)
Type: in vivo, Male Sprague-Dawley Rats
assayContext: male, Sprague-Dawley, rat; plasma, 300 mg/kg PO
readoutKind: Cmax (µg/mL)
// note: answer is a bare numeric in µg/mL

Exercise: What does the record list as Cmax for N[C@H](CO)C(=O)O [Non-deuterated D-Serine, D-serine] ?
Key: 268

----------
protocolText: Pharmacokinetic profile of Compound 100 and non-deuterated D-serine after 150 mg/kg PO doses (Example 3)
Type: in vivo, male Sprague-Dawley rats
assayContext: male, Sprague-Dawley, rat, hippocampus, po, 150 mg/kg, mean, 8 hr, read-out: Hippocampus concentration
readoutKind: concentration at 8 h (ng/g)
Answer in ng/g, number only, no unit symbol.

Exercise: I would be grateful if you could share the reported concentration at 8 h for "[2H][C@@](N)(CO)C(=O)O" .
Key: 4340
